- ASSAY: Drug uptake in Sprague-Dawley rat liver cytosol incubated for 1 hr followed by compound washout measured after 10 mins
- Assay type: ADME, tissue-based
PARAMETER MEASURED: Drug uptake

INSERT INTO measurements (cpd_smiles, value_measured) VALUES
  ('CC(C)(C)/[N+]([O-])=C/c1ccccc1', '0.88 µmol/g'),
  ('CCOP(=O)(OCC)C(C)(C)NCCCCCC[P+](c1ccccc1)(c1ccccc1)c1ccccc1.[Br-]', '0.93 µmol/g'),
  ('CCCNC(C)(C)P(=O)(OCC)OCC', '0.56 µmol/g'),
  ('CCOP(=O)(OCC)C(C)(C)NCCCCCCCC[P+](c1ccccc1)(c1ccccc1)c1ccccc1.[Br-]', '0.64 µmol/g');

Quick one: Drug uptake for CC(C)(C)/[N+]([O-])=C/c1ccc(OCCCC[P+](c2ccccc2)(c2ccccc2)c2ccccc2)cc1.[Br-] ?
0.12 µmol/g
